meta.source: ChEMBL document CHEMBL4477207

Assay: Fraction unbound in dog plasma by equilibrium dialysis method
Type: ADME, cell-free, Canis lupus familiaris
metric name: fraction unbound
Write the value as a bare number.

Supply reported fraction unbound belonging to this compound: COCc1ccc(-c2cc3c(N[C@@H](C)c4ccn(C)n4)c(C(N)=O)cnc3cc2F)cn1 0.18

----------
Test: Volume of distribution at steady state in dog at 1 mg/kg, iv or 2 mg/kg, po
Type: ADME, organism-based, Canis lupus familiaris
Settings: in vivo, read-out: Vdss
metric name: Vd (L/kg)
# output: bare number, implied unit L/kg

Read off the recorded Vd for COCc1ccc(-c2cc3c(N[C@@H](C)c4ccn(C)n4)c(C(N)=O)cnc3cc2F)cn1 1.4

----------
Target: Phosphatidylinositol 4,5-bisphosphate 3-kinase catalytic subunit alpha isoform (Homo sapiens)
Sequence (P42336 whole entry, canonical isoform): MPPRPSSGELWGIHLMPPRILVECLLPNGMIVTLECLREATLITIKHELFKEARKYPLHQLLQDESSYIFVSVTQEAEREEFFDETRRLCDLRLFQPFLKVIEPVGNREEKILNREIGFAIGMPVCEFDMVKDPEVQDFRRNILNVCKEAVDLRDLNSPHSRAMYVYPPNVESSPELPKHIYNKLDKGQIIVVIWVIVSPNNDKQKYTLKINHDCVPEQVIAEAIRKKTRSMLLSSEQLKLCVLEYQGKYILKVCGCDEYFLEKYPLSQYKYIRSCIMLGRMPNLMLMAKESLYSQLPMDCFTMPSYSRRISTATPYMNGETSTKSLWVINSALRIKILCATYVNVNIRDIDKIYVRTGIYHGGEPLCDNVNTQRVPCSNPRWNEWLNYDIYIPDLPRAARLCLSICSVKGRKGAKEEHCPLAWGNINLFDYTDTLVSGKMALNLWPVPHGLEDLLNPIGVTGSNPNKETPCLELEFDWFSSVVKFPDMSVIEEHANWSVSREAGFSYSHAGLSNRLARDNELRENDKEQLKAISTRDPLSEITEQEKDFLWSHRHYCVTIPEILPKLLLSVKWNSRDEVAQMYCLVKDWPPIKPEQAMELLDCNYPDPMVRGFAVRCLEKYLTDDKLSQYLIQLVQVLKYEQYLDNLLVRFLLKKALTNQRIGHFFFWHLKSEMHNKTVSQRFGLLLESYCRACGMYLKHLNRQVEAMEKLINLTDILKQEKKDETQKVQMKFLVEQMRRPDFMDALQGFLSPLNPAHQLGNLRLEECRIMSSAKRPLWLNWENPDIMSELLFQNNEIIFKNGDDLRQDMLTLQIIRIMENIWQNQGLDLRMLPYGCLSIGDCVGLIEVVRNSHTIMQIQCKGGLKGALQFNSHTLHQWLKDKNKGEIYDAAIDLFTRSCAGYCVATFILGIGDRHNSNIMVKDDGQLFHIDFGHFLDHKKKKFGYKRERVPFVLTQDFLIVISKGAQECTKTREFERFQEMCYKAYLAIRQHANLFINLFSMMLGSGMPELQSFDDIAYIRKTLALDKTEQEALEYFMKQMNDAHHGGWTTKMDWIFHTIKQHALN
Test: Inhibition of PI3Kalpha in human BT474 cells assessed as reduction in AKT phosphorylation at Thr-308 residue
Assay type: cell-based
metric name: pIC50
To interpret pIC50, take it as minus log10 of a concentration measured in moles per litre.

Give the reported value of pIC50 for this record: COCc1ccc(-c2cc3c(N[C@@H](C)c4ccn(C)n4)c(C(N)=O)cnc3cc2F)cn1 4.73

----------
The following compounds are listed with their measured hepatocyte CLint at 1.5 h values.
Experiment: in vitro
Conditions: rat, hepatocytes
// return numeric value only (unit: µL/min/1e6 cells, not printed)

Recorded hepatocyte CLint at 1.5 h, per entry:
>>> reading("CCC(CC)CNc1c(C(N)=O)cnc2ccc(-c3ccc(C)nc3)cc12")
150
>>> reading("CCC(CC)CNc1c(C(N)=O)cnc2ccc(-c3ccc(CS(C)(=O)=O)cc3)cc12")
210
>>> reading("C[C@@H](Nc1c(C(N)=O)cnc2ccc(-c3cccnc3)cc12)c1ccc(Cl)cc1")
70
>>> reading("NC(=O)c1cnc2ccc(-c3cccnc3)cc2c1NCC1CCOCC1")
19

Given C[C@@H](Nc1c(C(N)=O)cnc2ccc(-c3cccnc3)cc12)C1CCOCC1 , respond with its hepatocyte CLint at 1.5 h. 46

Tell me its hepatocyte CLint at 1.5 h given COc1cc2ncnc(-n3nc(-c4ccccn4)nc3N)c2cc1OC as the entry. 89

Respond only with hepatocyte CLint at 1.5 h recorded for NC(=O)c1cnc2cc(Cl)c(-c3cccnc3)cc2c1NC1CCOCC1 15

Identify hepatocyte CLint at 1.5 h associated with the compound CCC(CC)CNc1c(C(N)=O)cnc2ccc(-c3cncnc3)cc12 140

// fetch hepatocyte CLint at 1.5 h given entry NC(=O)c1cnc2ccc(-c3cccnc3)cc2c1SC1CCCC1 120

Tell us which hepatocyte CLint at 1.5 h value is on record for NC(=O)c1cnc2ccc(-c3cccnc3)cc2c1NC1CCCC1 65

Look up hepatocyte CLint at 1.5 h of CCC(CC)CNc1c(C(N)=O)cnc2ccc(-c3ccc(CS(C)(=O)=O)nc3)cc12 and report it. 200

Fill in hepatocyte CLint at 1.5 h for record CCC(CC)CNc1c(C(N)=O)cnc2ccc(-c3cccnc3)cc12 140

Answer with the recorded hepatocyte CLint at 1.5 h for the compound listed here: NC(=O)c1cnc2cc(F)c(-c3cccnc3)cc2c1NC1CCOCC1 13

----------
Test: Intrinsic clearance in human hepatocytes assessed per million cells
Format: ADME, cell-based, Hepatocyte
Details: read-out: CLH
Listing of recorded hepatocyte CLint by entry.

>>> reading("COCc1ccc(-c2ccc3ncc(C(N)=O)c(N[C@@H](C)C4CCOCC4)c3c2)cn1")
"< 2.6 µL/min/1e6 cells"

Proceed to the following item.
Give recorded hepatocyte CLint. COCc1ccc(-c2cc3c(N[C@@H](C)c4ccn(C)n4)c(C(N)=O)cnc3cc2F)cn1 < 1.5 µL/min/1e6 cells
